Origin of the recorded values: the METLIN SMRT retention time set (Domingo-Almenara et al. 2019)

assay summary: gradient 5% acetonitrile 3 min, to 50% in 2 min, to 85% in 15 min, held 3 min, 100 µL/min
reported conditions: column: Zorbax Extend-C18 2.1 x 50 mm; eluents: water / acetonitrile, 0.1% formic acid
assay endpoint: RP-LC retention time (s)

Short answer for CCSc1nc(-c2ccccc2)c(NC(=O)c2ccc(S(=O)(=O)N(C)C)cc2)s1 : RP-LC retention time was 1000

a: COc1ccc(CCNC(=O)Cn2cnc(C)cc2=O)cc1OC
b: Cc1ccc(-c2ccnc3nc(-c4ccccc4)nn23)cc1
(Q) Lower value of RP-LC retention time belongs to which: a or b ? The response must carry the label of the picked entry.
(A) a

a: Cc1ccc(CNC(=O)C2=CCN(Cc3cccc(F)c3)CC2)o1
b: Cc1nc(-c2csc(S(=O)(=O)N3CCC(C(=O)NCc4ccc(Cl)cc4)CC3)c2)no1
c: FC(F)(F)c1cc(-c2cccs2)n(-c2nc(-c3ccccc3)cs2)n1
(Q) Descending sort on RP-LC retention time required. List each label, following the requested order.
(A) c, b, a
